B1: TOR1AIP2 (parent)
chain: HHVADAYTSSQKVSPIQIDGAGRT

Variants of: B1
method summary: protein stability index of a GFP-peptide fusion (GPS, HEK-293T) (PSI 1-6); higher = more stable;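 also: lentivirally expressed fusions sorted by FACS into six bins by GFP to DsRed ratio, PSI derived from sequencing read proportions per bin multiplied by bin number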
cond: c terminus: a fixed tail appended
Respond with T for protein stability index values of 3 and above, F for values below.

1) G22R :: T
2) Q17V :: T
3) S14Q :: T
4) K12D :: T
5) D5S :: F
6) P15L :: T
7) S9F :: F
8) G22P :: T
9) R23A :: T
10) Q17N :: T
11) A21P :: T
12) P15F :: F
13) D5C :: F
14) Q17K :: T
15) V13P :: T
16) Y7D :: T
17) T24G :: T
18) T24D :: T
19) S14C :: T

The reported measurements were obtained from the supplement of paper PMC10567573.
